src = the Human Domainome abundance scans (Beltran et al. 2025)

B1: Unconventional myosin-Ie, residues 1051 to 1108; numbered along this chain, Q12965 (parent)
chain: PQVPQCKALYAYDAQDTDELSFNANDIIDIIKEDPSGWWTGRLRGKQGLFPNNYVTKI

Variants of: B1
Test: abundance fitness (aPCA) (normalised: wild type 0, dead -1); higher = more abundant; growth selection in yeast, the domain comes from the species named
Conditions: Homo sapiens
Quick list: abundance fitness per entry.
READOUT: abundance fitness

entry_sequence=PQVPQCKADYAYDAQDTDELSFNANDIIDIIKEDPSGWWTGRLRGKQGLFPNNYVTKI readout="abundance fitness" recorded_measurement=-0.451
entry_sequence=PQVPQCKALYAYDAQDTDELSFNANDIITIIKEDPSGWWTGRLRGKQGLFPNNYVTKI readout="abundance fitness" recorded_measurement=-0.062
entry_sequence=PQVPQCKALYAYDAQDLDELSFNANDIIDIIKEDPSGWWTGRLRGKQGLFPNNYVTKI readout="abundance fitness" recorded_measurement=-0.239
entry_sequence=PQVPQCKALYAYDAQDTDELSFNANDIIDIIKEDPSGWWTGRLRGKQGLFMNNYVTKI readout="abundance fitness" recorded_measurement=-0.484
entry_sequence=PQVPQCKALYAYDAQDTDELSFNANDIIDIIKEDPSGWWTGRLRGKQGLFPNNYVTPI readout="abundance fitness" recorded_measurement=-0.218
entry_sequence=PQVPQCKALYAYDAQDTDELSFNANDIIDIIKEDPSGWWTGRLRGKQGLFPNNHVTKI readout="abundance fitness" recorded_measurement=0.038
entry_sequence=PQVPQCKALYAYDAQDTDELSFNANDIIDIIKEDPSGWWTYRLRGKQGLFPNNYVTKI readout="abundance fitness" recorded_measurement=-0.88
entry_sequence=PQVPQCKALYAYDAQDTDELSFNANDIIDIIKEDPSGWWTGLLRGKQGLFPNNYVTKI readout="abundance fitness" recorded_measurement=-0.161
entry_sequence=PQVPQCKALYAYDAQDTDELSFNANDIIDIIKEDPSHWWTGRLRGKQGLFPNNYVTKI readout="abundance fitness" recorded_measurement=-0.883
entry_sequence=PQVPQCKALYAYWAQDTDELSFNANDIIDIIKEDPSGWWTGRLRGKQGLFPNNYVTKI readout="abundance fitness" recorded_measurement=-0.368
entry_sequence=PQVPQCKALYRYDAQDTDELSFNANDIIDIIKEDPSGWWTGRLRGKQGLFPNNYVTKI readout="abundance fitness" recorded_measurement=0.025
entry_sequence=PQVPQCKALYAYDAQDTDELSFNANDIIDIIKEDPSGWHTGRLRGKQGLFPNNYVTKI readout="abundance fitness" recorded_measurement=-0.732
entry_sequence=PQVPQCKALYAYDAQDTDELSFNANDIIDIIKEDPSGWWTGRLRGKQGLFPNSYVTKI readout="abundance fitness" recorded_measurement=-0.262
entry_sequence=PQVPQCKALYAYDAQDTDELSFNANDIIDIIKEDPSGWWTGRLRHKQGLFPNNYVTKI readout="abundance fitness" recorded_measurement=-0.1
entry_sequence=PQVPQCKALYAYDAQDTDELSFNANDIIDIIKEDPSGWWTGMLRGKQGLFPNNYVTKI readout="abundance fitness" recorded_measurement=-0.394
